Hey, just so you know, these numbers are from patent US5827837A.

- Tested On: L-selectin-lg fusion protein (Homo sapiens)
- Construct: Each selectin-lg contains the lectin domain, epidermal growth factor domain, and one (L-selectin-lg), two (P-selectin-lg) or six (E-selectin-lg) complement regulatory repeats; made in house
- Measurement Description: Competition ELISA: binding of L-selectin-Ig to immobilized BSA-sLe^x
- Applied Conditions: BSA-sLe^x competition ELISA; read-out: IC50, L-selectin binding
Endpoint: pIC50
Would you please state pIC50, meaning minus log10 of the concentration in mol/L, as a bare number?

Field request: pIC50 | item: O=S(=O)(O)O[C@H]1[C@H](OS(=O)(=O)O)[C@@H](OS(=O)(=O)O)[C@H](OS(=O)(=O)O)[C@@H](OS(=O)(=O)O)[C@H]1OS(=O)(=O)O [InsS6, myo-inositol hexakissulfate]
3.68
